Entries and their measured pIC50 follow.
Test system: HL-60
PROCEDURE DETAILS: Antitumor activity against human HL-60 cells assessed as inhibition of cell growth
Assay type: functional, cell-based
Quick note: pIC50 means taking -log10 of the concentration in moles per liter.

Known pIC50 results, listed for orientation:
Consider the compound shown here: Cc1cn(-c2cc(NC(=O)c3ccc(CN4CCOC[C@@H]4C)cc3)cc(C(F)(F)F)c2)cn1 What is its recorded pIC50?
4.77

Consider the compound shown here: CCN1CCN(Cc2ccc(C(=O)Nc3cc(-n4cnc(C)c4)cc(C(F)(F)F)c3)cc2)CC1 What is its recorded pIC50?
4.76

Consider the compound shown here: Cc1cn(-c2cc(NC(=O)c3ccc(CN4CCN(C(C)C)CC4)cc3)cc(C(F)(F)F)c2)cn1 What is its recorded pIC50?
4.83

Consider the compound shown here: Cc1cn(-c2cc(NC(=O)c3ccc(CN4CC(C)OC(C)C4)cc3)cc(C(F)(F)F)c2)cn1 (centres undefined) What is its recorded pIC50?
4.66

Consider the compound shown here: COc1ccc(NC(=O)c2ccc(CN3CCN(C)CC3)cc2)cc1-n1cc(C)nc1C What is its recorded pIC50?
4.63

More entries:
Consider the compound shown here: CCCCN1CCN(Cc2ccc(C(=O)Nc3cc(-n4cnc(C)c4)cc(C(F)(F)F)c3)cc2)CC1 What is its recorded pIC50?
4.75

Consider the compound shown here: CN1CCN(Cc2ccc(C(=O)Nc3cc(-n4cnc(C#N)c4)cc(C(F)(F)F)c3)cc2)CC1 What is its recorded pIC50?
4.73

###

System: HL-60
PROCEDURE DETAILS: Antitumor activity against human HL-60 cells assessed as inhibition of cell growth
Assay type: functional, cell-based
OBSERVATION TYPE: IC50 (µM)
Please reply with the bare figure in µM and do not write the unit itself.

Consider the compound shown here: Cc1cn(-c2cc(NC(=O)c3ccc(CN4CCN(C)CC4)cc3)cc(C(F)(F)F)c2)cn1 What is its recorded IC50?
21.2

Consider the compound shown here: Cc1cn(-c2cc(NC(=O)c3ccc(CN4CCOC(C)C4)cc3)cc(C(F)(F)F)c2)cn1 (centres undefined) What is its recorded IC50?
25.8

Consider the compound shown here: Cc1ccc(NC(=O)c2ccc(CN3CCN(C)CC3)cc2)cc1Nc1nccc(-c2cccnc2)n1 What is its recorded IC50?
17.2

Consider the compound shown here: Cc1cn(-c2cc(NC(=O)c3ccc(CN4CCN(C(C)(C)C)CC4)cc3)cc(C(F)(F)F)c2)cn1 What is its recorded IC50?
16.8

Consider the compound shown here: CN1CCN(Cc2ccc(C(=O)Nc3cc(-n4ccnc4)cc(C(F)(F)F)c3)cc2)CC1 What is its recorded IC50?
18.8

Consider the compound shown here: CCCCN1CCN(Cc2ccc(C(=O)Nc3cc(-n4ccnc4)cc(C(F)(F)F)c3)cc2)CC1 What is its recorded IC50?
34.9

More entries:
Consider the compound shown here: Cc1cn(-c2cccc(NC(=O)c3ccc(CN4CCN(C)CC4)cc3)c2)c(C)n1 What is its recorded IC50?
36

###

Test system: HL-60
PROCEDURE DETAILS: Antitumor activity against human HL-60 cells assessed as inhibition of cell growth
Format: functional, cell-based
OBSERVATION TYPE: IC50 (µM)
Please reply with the bare figure in µM and do not write the unit itself.

Query the reported IC50 for HL-60; item: Cc1cn(-c2cc(NC(=O)c3ccc(CN4CCCC4)cc3)cc(C(F)(F)F)c2)cn1
24.9

Query the reported IC50 for HL-60; item: Cc1cn(-c2cc(NC(=O)c3ccc(CN4CCN(C(=O)C5CC5)CC4)cc3)cc(C(F)(F)F)c2)cn1
13.3

More entries:
Query the reported IC50 for HL-60; item: Cc1cn(-c2cc(NC(=O)c3ccc(CN4CCN(C)CC4)cc3)cc(C(F)(F)F)c2)c(C)n1
17
